assay: Plasma pharmacokinetics after single oral dose in ORA-Plus or SyrSpend SF (Example 6), LC-MS/MS; type: in vivo, Sprague Dawley rats; settings: female, Sprague Dawley, rat, plasma, po, 24 mg/kg, G1: free base, 24 mg/kg single oral dose, ORA-plus, rat plasma
measure: AUC(0-t) (ng·h/mL)
Dear colleague, please return just the value in ng·h/mL, with no unit written.

Input: Read the entry CC(C)(C)CNCCn1c(Sc2cc3c(cc2I)OCO3)nc2c(N)ncnc21 [Compound 2] and write its reported AUC(0-t).
Output: 1570

----------
experiment: Plasma pharmacokinetics after single oral dose in ORA-Plus or SyrSpend SF (Example 6), LC-MS/MS; format: in vivo, Sprague Dawley rats; settings: female, Sprague Dawley, rat, plasma, po, 48 mg/kg, G6: 2HCl, 48 mg/kg single oral dose, ORA-plus, rat plasma
measure: half-life (min)
Dear colleague, please return just the value in min, with no unit written.

Input: Read the entry CC(C)NCCCn1c(Sc2cc3c(cc2I)OCO3)nc2c(N)ncnc21 [Compound 1 2HCl] and write its reported half-life.
Output: 210

----------
experiment: Plasma pharmacokinetics after single PO or IV administration (Example 5), LC-MS/MS; conditions: female, Sprague-Dawley, rat, plasma, po, 36 mg/kg, Tmax (hr) Mean ± StdDev, Group 15: 36 mg/kg PO, 0.5% Methylcellulose in water; dosed as 2HCl
measure: Tmax

Input: Read the entry CC(C)NCCCn1c(Sc2cc3c(cc2I)OCO3)nc2c(N)ncnc21 and write its reported Tmax.
Output: 2.2 h

----------
experiment: Plasma pharmacokinetics after single oral dose in ORA-Plus or SyrSpend SF (Example 6), LC-MS/MS; assay type: in vivo, Sprague Dawley rats; settings: female, Sprague Dawley, rat, plasma, po, 24 mg/kg, G9: 2HCl, 24 mg/kg single oral dose, SyrSpend, rat plasma
measure: AUC(0-t) (ng·h/mL)
Dear colleague, please return just the value in ng·h/mL, with no unit written.

Input: Read the entry CC(C)(C)CNCCn1c(Sc2cc3c(cc2I)OCO3)nc2c(N)ncnc21 [Compound 2 2HCl] and write its reported AUC(0-t).
Output: 1180
